- COND: in THF, 323.2 K
PARAMETER MEASURED: solubility (mole fraction)
Answers are plain numbers.

Task item: Which solubility (mole fraction) value belongs to c1ccc2ccccc2c1 ?
Reply: 0.566

###

- COND: in NMP, 323.27 K
PARAMETER MEASURED: solubility (mole fraction)
Numbers only.

Task item: Which solubility (mole fraction) value belongs to c1ccc2ccccc2c1 ?
Reply: 0.577

###

- COND: in acetone, 303 K
PARAMETER MEASURED: solubility (mole fraction)
Numbers only.

Task item: Which solubility (mole fraction) value belongs to c1ccc2ccccc2c1 ?
Reply: 0.268

###

- COND: in acetone, 308.1 K
PARAMETER MEASURED: solubility (mole fraction)

Task item: Which solubility (mole fraction) value belongs to c1ccc2ccccc2c1 ?
Reply: 0.307

###

- COND: in DMF, 283.05 K
PARAMETER MEASURED: solubility (mole fraction)
Answers are plain numbers.

Task item: Which solubility (mole fraction) value belongs to c1ccc2ccccc2c1 ?
Reply: 0.185

###

- COND: in NMP, 308.17 K
PARAMETER MEASURED: solubility (mole fraction)
Numbers only.

Task item: Which solubility (mole fraction) value belongs to c1ccc2ccccc2c1 ?
Reply: 0.438

###

- COND: in NMP, 318.21 K
PARAMETER MEASURED: solubility (mole fraction)

Task item: Which solubility (mole fraction) value belongs to c1ccc2ccccc2c1 ?
Reply: 0.535

###

- COND: in isobutyl acetate, 278.18 K
PARAMETER MEASURED: solubility (mole fraction)

Task item: Which solubility (mole fraction) value belongs to c1ccc2ccccc2c1 ?
Reply: 0.183

###

- COND: in n-butyric acid, 303.22 K
PARAMETER MEASURED: solubility (mole fraction)
One number for each entry.

Task item: Which solubility (mole fraction) value belongs to c1ccc2ccccc2c1 ?
Reply: 0.179

###

- COND: in acetone, 283.15 K
PARAMETER MEASURED: solubility (mole fraction)
One number for each entry.

Task item: Which solubility (mole fraction) value belongs to c1ccc2ccccc2c1 ?
Reply: 0.143

###

- COND: in acetone, 318.15 K
PARAMETER MEASURED: solubility (mole fraction)
Answers are plain numbers.

Task item: Which solubility (mole fraction) value belongs to c1ccc2ccccc2c1 ?
Reply: 0.417

###

- COND: in DMF, 292.75 K
PARAMETER MEASURED: solubility (mole fraction)
Numbers only.

Task item: Which solubility (mole fraction) value belongs to c1ccc2ccccc2c1 ?
Reply: 0.244

###

- COND: in ethyl acetate, 308.21 K
PARAMETER MEASURED: solubility (mole fraction)
One number for each entry.

Task item: Which solubility (mole fraction) value belongs to c1ccc2ccccc2c1 ?
Reply: 0.357

###

- COND: in isobutyl acetate, 288.22 K
PARAMETER MEASURED: solubility (mole fraction)

Task item: Which solubility (mole fraction) value belongs to c1ccc2ccccc2c1 ?
Reply: 0.232

###

- COND: in acetone, 278.15 K
PARAMETER MEASURED: solubility (mole fraction)
Answers are plain numbers.

Task item: Which solubility (mole fraction) value belongs to c1ccc2ccccc2c1 ?
Reply: 0.124

###

- COND: in THF, 298 K
PARAMETER MEASURED: solubility (mole fraction)
One number for each entry.

Task item: Which solubility (mole fraction) value belongs to c1ccc2ccccc2c1 ?
Reply: 0.352
